src = the domain aggregation screens of Martell et al. (2025)

# METHOD NOTES: soluble fraction after stress (log2 fold change); higher = more stays soluble; pooled small domains, quantitative proteomics
# MEASUREMENT SETUP: stress: pH 4
Label true when soluble fraction (log2) is at or above -0.4; otherwise label false.

Solved entries:
HMQDPVWVDWLGENDWFQKDPKRRGLANGYSEILRAEQPELVGRPFLDEVTRRVQADFPELFG	false
HMAEPSTSYTQFMDQAKEGKIKRVDVQGRTLTVTPTEGATYKITAPGDLWMVEDLRKAGVQVYGQP	true

[ask] Kindly determine if soluble fraction (log2) recorded for HMSLTMPKLIGMHLFQAERTLNYYGFQYKVEGPDSASVVIDQYPKEGVTVDPHYPITLKIGPSA is above or exactly -0.4.
[reply] true

[ask] // next record HMPHITDAEWEVMRVVWANHHVTSKEVISILEDKMNWKATTIKTLLGRLVEKGALSTEQDGKKFIYTAR
[reply] false

[ask] And for HMLALKSGQVVVGTIIRRLDNTTAMLRIGNQLFETSFAKGLPKSNHILLRYDAMQGNRFIFTMVE ?
[reply] true

[ask] Now consider HMRLANGIGTVYKLSGNRRNPYIVRKTTGWEIDEESGKAKQKYITIGYAPTRAKGLEMLMDYNKNP and answer again.
[reply] true

[ask] Please answer likewise for HMQLEPLITSVIPVNFAKAGEVATTIKGKEVGLVSDRGSITAESRTNVLIVKDIKKNVDDISAMVKRLD
[reply] true

[ask] Repeat for the following sequence: HMEFTKSPLDEIAGVGPARKRALLAAFGTAKAVSQAALADLEKTPGVNAATARLVYAHFHEK
[reply] true

[ask] Lookup HMALDLNEDEKLLVELIEKAGGTAGLGELKEASGLSGKKWDKTTKNLSKEGLIKVEKNESGLWVHLT
[reply] false

[ask] Now the same for HMEGAEDMNRALALAFLRDNSRSTVAQLAEHLGSSKRSAERLVAQLKDEGVLERQGSPRAGLWIVHI
[reply] true

[ask] // repeat for HMISKYLRIESDILSAIREGRLKPGDKLPGQSEMRRIYNVSAITVRKAFTDLINDGYLVGVRGSGTYVAKR and report
[reply] true

[ask] Input HMFTEEEMTKLRHELILAGIRLSRELGLQRMSVEKITSAVGIAKGSFYIFFDSKEDFILEIADHANRE
[reply] false

[ask] Try this sequence next: HMNSLPFSNFMNEVEAGRVVEVKIQGNNISGVLANGKTFSTYSPNYPELVEKLSSNGVSIVATPQ
[reply] true

[ask] Try this sequence next: HMAPGSKAEIPEDLMKVINKDPKMKAFVATLNKANIMAISFRLSTAKKPETRERRFNLILETLKRGEKF
[reply] false

[ask] Next: HMINYYELLKLDMNAAHEEINDAIKLESEKNTIPEDQIRTMKSIFFNTEFKKEYDQRLMNFLLT
[reply] false

[ask] Similarly, HMESRDRVRQASAAGYRFMSTMAGHEPGFEEASRALFAGDQTAFEARITAWPVDVQTHLKKILAEAFTT ?
[reply] false

[ask] What do we get for HMNQKKFIQADYEDRLFDHLAFEVKDMEKIISMMRREKFTITDEPFRLSPTGSLIAFVEDPDRTLIELIER ?
[reply] false

[ask] What do we get for HMSAMSPTEVGERLRLAREAVRMTQKQAADAISVARTTLVAIEQGQRRVRIDELQQLAKTYGVSVNAILR ?
[reply] true

[ask] For HMISSKDIINDEDGARLGKIADVEIDVATGKILSVHVYRSFKLLHLFGNKDVVQIPWNKIMKIGSDVVIVE then?
[reply] true

[ask] Could you do the same for HMWTPLVVAVLIGGTHRFGELRAAVGGITPKVLTETLRSMERDGLVVREQTPGVPPRVDYALTPLGA , please?
[reply] true

[ask] // query: HMTTMYKSDVKGINYDVKAKSWFLRITFNGNQIPIGHFKTEEDAINVKQQLIPYIESKDYTSILAVKAKYS
[reply] true

[ask] Record: HMNKLSISALAETVSTKRKEKSMTQQDLSDATGINRALISRLEQKDFIPSIPQLEKLEEILGFELEEVF
[reply] false

[ask] Then HMTIYPFNPNYLKDYQAYRVGLSLKEIDALLDFRSSGQWINSAEDFQRITGVSDSVLEQLIPYFKFS ?
[reply] false

[ask] Now give it for HMLSDAAAMESIAYEAIRQMEPDTYYIIGAGTTTRGIMEVLGLKNTLIGVDLIRNKELVANDLGGKELLSY too.
[reply] false
